System: HeLa WT β-III
Assay: Effect of β-III tubulin on drug sensitivity, βIII-tubulin expressing HeLa
Type: cell-based, human
Details: Table 13, SRB assay; read-out: IC50 ± SD βIII Overexpressing HeLa
outcome-measure: IC50 (µM)
Numbers only, in µM.

Exam item: Looking for the measured IC50 of "COc1ccc(Sc2sc3nc(N)nc(N)c3c2C)cc1" , can you help?
Marked response: 2.5

====

Target: recombinant pjDHFR (Pneumocystis jirovecii (Human pneumocystis pneumonia agent), UniProt Q9UUP5)
Test: Inhibition of recombinant pjDHFR
Settings: 37° C., 9 μM dihydrofolic acid
outcome-measure: IC50
Could you write the number and then its unit?

Exam item: Could you share which IC50 value was measured for "COc1cccc(Sc2sc3nc(N)nc(N)c3c2C)c1" ?
Marked response: 177 nM
